Values compiled from ChEMBL document CHEMBL1649088.

testSystem: Procathepsin L (Homo sapiens, UniProt P07711)
Sequence (P07711 whole entry): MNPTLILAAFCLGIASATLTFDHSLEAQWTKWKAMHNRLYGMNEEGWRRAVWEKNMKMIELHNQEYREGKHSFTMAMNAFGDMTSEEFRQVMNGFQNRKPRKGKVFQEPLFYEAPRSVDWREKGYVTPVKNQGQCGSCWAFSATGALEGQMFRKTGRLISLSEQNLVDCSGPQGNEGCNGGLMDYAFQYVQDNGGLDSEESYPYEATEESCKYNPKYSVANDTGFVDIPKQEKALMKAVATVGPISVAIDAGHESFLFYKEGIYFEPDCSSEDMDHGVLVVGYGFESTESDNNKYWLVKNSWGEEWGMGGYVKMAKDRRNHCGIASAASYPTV
experimentalDetails: Inhibition of human recombinant cathepsin L after 30 mins by spectrophotometric assay
reportedMetric: Ki (nM)

CC(C)[C@H](NC(=O)OCc1ccccc1)C(=O)N(C)N(C)C#N
1.5
CC(C)C[C@H](NC(=O)c1ccc(-c2noc(-c3cccs3)n2)cc1)C(=O)N(C)N(C)C#N
0.22
Cc1nc(-c2ccc(CNC(=O)N[C@@H](CC(C)C)C(=O)N(C)N(C)C#N)cc2)no1
1.4

P. CC(C)C[C@H](NC(=O)NCc1ccccc1)C(=O)N(C)N(C)C#N
Q. CC(C)C[C@H](NC(=O)c1ccc(-c2noc(-c3cccs3)n2)cc1)C(=O)NCC#N
Returns: the label, P or Q , whose recorded Ki is the lower number. Answer by stating the label of the chosen item.
P
(P: 0.39 nM, Q: 940 nM)

###

System: Cathepsin S (Homo sapiens) | Read-out: pKi
Sequence (P25774 whole entry): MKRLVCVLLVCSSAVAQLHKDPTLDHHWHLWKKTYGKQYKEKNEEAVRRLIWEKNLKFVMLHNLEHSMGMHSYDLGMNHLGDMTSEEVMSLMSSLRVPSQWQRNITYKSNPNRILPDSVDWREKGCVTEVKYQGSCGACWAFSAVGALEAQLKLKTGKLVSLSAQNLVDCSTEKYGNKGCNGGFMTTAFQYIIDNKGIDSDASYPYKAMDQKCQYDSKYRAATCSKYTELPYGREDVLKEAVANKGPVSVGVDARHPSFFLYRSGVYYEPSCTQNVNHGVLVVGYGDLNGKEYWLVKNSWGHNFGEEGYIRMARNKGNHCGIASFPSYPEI
pKi: −log10 of the molar value.
reportedMetric: pKi

CC(C)C[C@H](NC(=O)c1ccc(-c2noc(-c3cccs3)n2)cc1)C(=O)NCC#N
6.85
CC(C)C[C@@H](C(=O)N(C)N(C)C#N)N(C)C(=O)c1ccc(-c2noc(-c3cccs3)n2)cc1
6.85

a. Cc1nc(-c2ccc(CNC(=O)N[C@@H](CC(C)C)C(=O)N(C)N(C)C#N)cc2)no1
b. CC(C)C[C@H](NC(=O)Nc1ccc(-c2noc(-c3cccs3)n2)cc1)C(=O)NCC#N
c. CC(C)[C@H](NC(=O)OCc1ccccc1)C(=O)N(C)N(C)C#N
d. CN(C#N)N(C)C(=O)[C@H](Cc1ccccc1)NC(=O)OCc1ccccc1
Order the items by recorded pKi; the first position goes to the largest value. API: response body holds the labels in the requested order.
a, d, c, b

###

testSystem: Cathepsin B (Homo sapiens)
experimentalDetails: Inhibition of human recombinant cathepsin B after 30 mins by spectrophotometric assay
Reported Ki values for the following compounds.

A selection of reference data follows.
CC(C)C[C@H](NC(=O)Nc1ccc(-c2noc(-c3cccs3)n2)cc1)C(=O)NCC#N
> 22 µM
CC(C)C[C@H](NC(=O)c1ccc(-c2noc(-c3cccs3)n2)cc1)C(=O)NCC#N
> 22 µM

Kindly note the recorded Ki for `CC(C)C[C@@H](C(=O)NCC#N)N(C)C(=O)c1ccc(-c2noc(-c3cccs3)n2)cc1` , which is > 22 µM

###

testSystem: Procathepsin L (Homo sapiens)
experimentalDetails: Inhibition of human recombinant cathepsin L after 30 mins by spectrophotometric assay
reportedMetric: Ki (nM)

Worked examples, 4 compounds total:
Cc1nc(-c2ccc(NC(=O)N[C@@H](CC(C)C)C(=O)N(C)N(C)C#N)cc2)no1
2
CN(C#N)N(C)C(=O)[C@H](Cc1ccccc1)NC(=O)OCc1ccccc1
0.16
CC(C)C[C@H](NC(=O)Nc1ccc(-c2noc(-c3cccs3)n2)cc1)C(=O)N(C)N(C)C#N
4.4
CN(C#N)N(C)C(=O)[C@H](Cc1ccc(O)cc1)NC(=O)OCc1ccccc1
0.36

A. CC(C)C[C@H](NC(=O)Nc1ccccc1)C(=O)N(C)N(C)C#N
B. CC[C@H](C)[C@H](NC(=O)OCc1ccccc1)C(=O)N(C)N(C)C#N
Lab note: check whether A or B has the lower measured Ki. Give the label under which the chosen entry appears.
A

1. CN(C#N)N(C)C(=O)[C@H](CC1CCCCC1)NC(=O)OCc1ccccc1
2. CC(C)C[C@@H](C(=O)N(C)N(C)C#N)N(C)C(=O)c1ccc(-c2noc(-c3cccs3)n2)cc1
3. CN(C#N)N(C)C(=O)CNC(=O)OCc1ccccc1
4. CC(C)C[C@H](NC(=O)Nc1ccc(-c2noc(-c3cccs3)n2)cc1)C(=O)NCC#N
5. C[C@H](NC(=O)OCc1ccccc1)C(=O)N(C)N(C)C#N
Parameters: sort_field (Ki), sort_dir (desc). # output: labels, in the requested order
4, 2, 3, 5, 1
(4: 4700 nM, 2: 2700 nM, 3: 860 nM, 5: 480 nM, 1: 0.4 nM)

###

testSystem: UniProtKB P07711
experimentalDetails: Inhibition of human recombinant cathepsin L after 30 mins by spectrophotometric assay
reportedMetric: Ki (nM)

CC(C)C[C@H](NC(=O)OCc1ccccc1)C(=O)N(C)N(C)C#N
0.9
CC(C)C[C@H](NC(=O)NCc1ccc(-c2noc(-c3cccs3)n2)cc1)C(=O)N(C)N(C)C#N
1.1
